meta.source: a melting point compilation (Tetko et al.; mined from patent text by program, amines drawn as free bases though some values may be those of a salt)

Items are presented alongside their recorded melting point.

Give me measured melting point, please, for this compound: `NC(=O)c1nc[nH]c1F`
253 to 254 °C

* * *

This listing pairs molecules with measured melting point.

Give the measured melting point for `CC(=O)OCc1cc([N+](=O)[O-])ccc1C`
52 to 53.5 °C

Tell me measured melting point for CCCCC1CCc2ccc(OCc3ccccn3)cc2C1=O (stereo not given) please.
56 to 60 °C

Hello, please tell me recorded melting point for this one: `O=C1C(c2cccn2-c2ccccc2)=CC(=O)c2ncccc21`
132 to 134 °C

Return melting point for the following molecule: `CC(C)N1CCN(c2ccc(C(=O)NCCCCCCCCCCCCO[N+](=O)[O-])cn2)CC1`
56 to 58 °C

Fill in reported melting point for this entry: CC(C)CC(Br)C(=O)N1CCC[C@H]1CO (stereo not given in full)
79 to 82 °C
